Test: qHTS assay to identify small molecule antagonists of the androgen receptor (AR) signaling pathway using the MDA cell line in the presence of 0.5 nM R1881 - cell viability counter screen (AID 1259242); further: nearly all actives have a fitted effect of over 45% in size; further: potency means the concentration at half of the fitted maximal effect
Conditions: MDA-kb2 viability, CellTiter-Fluor protease fluorescence, 16 h; series mostly up to 92.4 µM
Results filed as inconclusive are left out. Activity calls are given as the source filed them. The call rests on the fitted dose curve; in most records, active means well fitted cell-killing curve with a large enough effect in the repeat runs; inconclusive means weak or mixed curves, or effect the other way; inactive means flat fitted curve, though single readings scatter.
assayReadout: Potency

Below, 5 molecules whose answers are already recorded.
c1ccc2c(c1)Sc1ccccc1N2CC1CN2CCC1CC2 (centres undefined)
29.8 µM (active)
O=S(=O)(C(Cl)(Cl)Cl)C(Cl)(Cl)Cl
54.5 µM (active)
CCC1(c2cnc[nH]2)Cc2ccccc2C1
inactive
CO/C=C(/C(=O)OC)c1ccccc1Oc1cc(Oc2ccccc2C#N)ncn1
24.3 µM (active)
Clc1ccccc1-c1ccccc1Cl
inactive

Could you please provide reported Potency for `C[C@]12CC[C@@H](O)C[C@@H]1CC[C@@H]1[C@@H]2CC[C@]2(C)C(=O)CC[C@@H]12` ? Thanks! inactive

Could you please provide reported Potency for `O=C(c1ccccc1)C(Cl)Cl` ? Thanks! inactive

Could you please provide reported Potency for `ClC(Cl)=C(c1ccc(Cl)cc1)c1ccccc1Cl` ? Thanks! inactive

Could you please provide reported Potency for `O=S(=O)(O)c1cc(O)ccc1O` ? Thanks! inactive

Could you please provide reported Potency for `COc1cc(OC)c(OC)cc1C=O` ? Thanks! inactive

Could you please provide reported Potency for `N#Cc1cc([N+](=O)[O-])ccc1N` ? Thanks! inactive

Could you please provide reported Potency for `O=[N+]([O-])c1c(Cl)c(Cl)cc(Cl)c1Cl` ? Thanks! inactive

Could you please provide reported Potency for `Cc1cc(C)c(C(=O)P(=O)(c2ccccc2)c2ccccc2)c(C)c1` ? Thanks! inactive

Could you please provide reported Potency for `OCC(c1ccc(Cl)cc1)c1ccc(Cl)cc1` ? Thanks! inactive

Could you please provide reported Potency for `ClC1=C(Cl)[C@]2(Cl)[C@@H]3[C@@H](Cl)[C@H]4O[C@H]4[C@@H]3C1(Cl)C2(Cl)Cl` ? Thanks! inactive

Could you please provide reported Potency for `CNC(=O)Oc1cc(C)c(SC)c(C)c1` ? Thanks! inactive

Could you please provide reported Potency for OC(Cc1ccccc1Cl)(Cn1[nH]cnc1=S)C1(Cl)CC1 (centres undefined) ? Thanks! inactive

Could you please provide reported Potency for `COc1ccc(C(c2ccc(OC)cc2)C(Cl)(Cl)Cl)cc1` ? Thanks! inactive

Could you please provide reported Potency for `O=C(Nc1ccccc1-c1ccc(Cl)cc1)c1cccnc1Cl` ? Thanks! inactive
